Recorded values, source patent US6596863B2.

measurementType: melting point

Known melting point results, listed for orientation:
compound="CNC(=C[N+](=O)[O-])NNc1cc(C(F)(F)F)cc(C(F)(F)F)n1 [compound 44]" measurementtype="melting point" result="192 to 193 °C (dec.)"
compound="O=[N+]([O-])C=C(NCCCCO)NNc1cc(C(F)(F)F)cc(Cl)n1 [compound 199]" measurementtype="melting point" result="150 to 151 °C"
compound="CNC(=C[N+](=O)[O-])NN=C(C)C [compound 25]" measurementtype="melting point" result="136 °C"

Let us examine a further case.
Which melting point is reported for this compound? CCCOc1ccc(NC(=C[N+](=O)[O-])NN)cc1 [compound 71] 179 °C (dec.)

###

testedOn: human MMP-9 (gelatinase B) (Homo sapiens)
Construct: endogenous in cells; host or cells: HT1080 human fibrosarcoma cells (ATCC CCL-121), PMA-stimulated; enzyme purified from the culture supernatant
experimentSummary: Inhibition activity against human MMP-9 (gelatinase B), fluorescent peptide substrate
Format: biochemical
protocolConditions: compounds of the formula (I); 1st measurement; read-out: MMP-9 inhibition activities IC50, 1st
measurementType: IC50 (µM)

Known IC50 results, listed for orientation:
compound="CNC(=C[N+](=O)[O-])NNc1cc(C(F)(F)F)cc(OCCCc2cccnc2)n1 [compound 119]" measurementtype=IC50 resultnumber=28
compound="CNC(=C[N+](=O)[O-])NNC(O)C(F)(F)F (centres unmarked) [compound 23]" measurementtype=IC50 resultnumber=42.5

A. COc1ccccc1NC(=C[N+](=O)[O-])NN [compound 57]
B. CNC(=C[N+](=O)[O-])NN=Cc1ccccc1 [compound 18]
Would you kindly point out which of A and B has the smaller IC50 figure? Please indicate the selected item by its label. B

###

melting point values for the compounds below.

Which melting point is reported for this compound? NNC(=C[N+](=O)[O-])Nc1ccc2cn[nH]c2c1 [compound 152] 209 to 213 °C (dec.)

Try CC(=C(NNc1cc(C(F)(F)F)cc(Cl)n1)NS(C)(=O)=O)[N+](=O)[O-] [compound 165] next. 30 to 33 °C

Try NNC(=C[N+](=O)[O-])Nc1ccc2c(c1)OCO2 [compound 110] next. 177 to 180 °C (dec.)

Try CNC(=C[N+](=O)[O-])NNc1ccc(OC(F)(F)F)cc1 [compound 95] next. 176 to 177 °C (dec.)

Try COc1ccc(NC(=C[N+](=O)[O-])NNc2ccc(C(F)(F)F)cn2)cc1 [compound 41] next. 155 to 157 °C

Try NC(=C[N+](=O)[O-])NNc1cc(C(F)(F)F)cc(Cl)n1 [compound 103] next. 201 to 202 °C (dec.)

Try CSC(=C[N+](=O)[O-])NC1CC1 [Intermediate 2] next. 101.5 to 106 °C

Try CNC(=C[N+](=O)[O-])NNc1cc(C(F)(F)F)cc(OC)n1 [Compound No. 98] next. 193 °C (dec.)

Try CNC(=C[N+](=O)[O-])NN=C(C)c1ccccn1 [compound 33] next. 170 °C (dec.)

###

testedOn: human MMP-9 (gelatinase B) (Homo sapiens)
Construct: endogenous in cells; host or cells: HT1080 human fibrosarcoma cells (ATCC CCL-121), PMA-stimulated; enzyme purified from the culture supernatant
experimentSummary: Inhibition activity against human MMP-9 (gelatinase B), fluorescent peptide substrate
Format: biochemical
protocolConditions: intermediates, compounds of the formula (IV); 2nd measurement; read-out: MMP-9 inhibition activities IC50, 2nd
measurementType: IC50 (µM)

Known IC50 results, listed for orientation:
molecule="CSC(=C[N+](=O)[O-])Nc1ccc(Cl)cc1 [Intermediate 19]" testedon="human MMP-9 (gelatinase B) (Homo sapiens)" measurementtype=IC50 resultnumber=35.6
molecule="CSC(=C[N+](=O)[O-])NC1CC1 [Intermediate 2]" testedon="human MMP-9 (gelatinase B) (Homo sapiens)" measurementtype=IC50 resultnumber=59.9
molecule="CSC(=C[N+](=O)[O-])Nc1ccc2c(c1)C(=O)CO2 [Intermediate 52]" testedon="human MMP-9 (gelatinase B) (Homo sapiens)" measurementtype=IC50 resultnumber=50.4
molecule="COc1ccccc1NC(=C[N+](=O)[O-])SC [Intermediate 25]" testedon="human MMP-9 (gelatinase B) (Homo sapiens)" measurementtype=IC50 resultnumber=35.3
molecule="CCOC(=O)c1ccc(NC(=C[N+](=O)[O-])SC)cc1 [Intermediate 50]" testedon="human MMP-9 (gelatinase B) (Homo sapiens)" measurementtype=IC50 resultnumber=25.3
molecule="CSC(=C[N+](=O)[O-])Nc1ccc([N+](=O)[O-])cc1 [Intermediate 11]" testedon="human MMP-9 (gelatinase B) (Homo sapiens)" measurementtype=IC50 resultnumber=15.9
molecule="CSC(=C[N+](=O)[O-])NS(C)(=O)=O [Intermediate 57]" testedon="human MMP-9 (gelatinase B) (Homo sapiens)" measurementtype=IC50 resultnumber=37.5
molecule="CSC(=C[N+](=O)[O-])Nc1ccc2c(c1)OCO2 [Intermediate 51]" testedon="human MMP-9 (gelatinase B) (Homo sapiens)" measurementtype=IC50 resultnumber=26
molecule="CSC(=C[N+](=O)[O-])Nc1ccc(F)cc1 [Intermediate 21]" testedon="human MMP-9 (gelatinase B) (Homo sapiens)" measurementtype=IC50 resultnumber=54.4
molecule="CSC(=C[N+](=O)[O-])Nc1c(C)nn(C)c1C [Intermediate 54]" testedon="human MMP-9 (gelatinase B) (Homo sapiens)" measurementtype=IC50 resultnumber=33.9

1. CSC(=C[N+](=O)[O-])Nc1ccc2cn[nH]c2c1 [Intermediate 55]
2. CSC(=C[N+](=O)[O-])NC(C)C [Intermediate 10]
# argmax over IC50 for candidates 1 and 2 Please indicate the selected item by its label. 2

###

testedOn: human MMP-9 (gelatinase B) (Homo sapiens, UniProt P14780)
Construct: endogenous in cells; host or cells: HT1080 human fibrosarcoma cells (ATCC CCL-121), PMA-stimulated; enzyme purified from the culture supernatant
Sequence (P14780 107-707 limits assumed): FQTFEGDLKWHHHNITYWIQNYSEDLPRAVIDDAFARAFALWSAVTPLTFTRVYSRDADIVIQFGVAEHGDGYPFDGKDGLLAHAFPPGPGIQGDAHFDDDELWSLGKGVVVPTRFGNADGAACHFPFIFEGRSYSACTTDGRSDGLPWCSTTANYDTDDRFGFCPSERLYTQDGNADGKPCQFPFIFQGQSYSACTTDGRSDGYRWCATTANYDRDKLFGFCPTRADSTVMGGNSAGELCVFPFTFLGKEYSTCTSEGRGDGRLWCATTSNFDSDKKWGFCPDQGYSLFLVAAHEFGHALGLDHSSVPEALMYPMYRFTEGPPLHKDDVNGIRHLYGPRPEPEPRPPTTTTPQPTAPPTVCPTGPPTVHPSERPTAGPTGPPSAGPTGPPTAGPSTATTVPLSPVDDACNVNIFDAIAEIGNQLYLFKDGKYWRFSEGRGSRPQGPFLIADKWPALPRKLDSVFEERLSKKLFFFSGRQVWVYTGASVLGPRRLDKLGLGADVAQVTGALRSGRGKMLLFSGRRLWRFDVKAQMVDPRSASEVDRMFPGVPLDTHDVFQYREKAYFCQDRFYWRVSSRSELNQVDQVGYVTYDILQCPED
experimentSummary: Inhibition activity against human MMP-9 (gelatinase B), fluorescent peptide substrate
Type: biochemical
protocolConditions: compounds of the formula (I); 2nd measurement; read-out: MMP-9 inhibition activities IC50, 2nd
pIC50: −log10 of the molar value.
measurementType: pIC50

Known pIC50 results, listed for orientation:
molecule=NNC(=C[N+](=O)[O-])Nc1ccc(OC(F)(F)F)cc1 measurementtype=pIC50 resultnumber=4.37
molecule=CNC(=C[N+](=O)[O-])NN=Cc1ccc([N+](=O)[O-])cc1 measurementtype=pIC50 resultnumber=4.80
molecule=CCNC(=C[N+](=O)[O-])NNc1cc(C(F)(F)F)cc(Cl)n1 measurementtype=pIC50 resultnumber=4.85
molecule=NC(=C[N+](=O)[O-])NNc1cc(C(F)(F)F)cc(Cl)n1 measurementtype=pIC50 resultnumber=4.97
molecule=CNC(=C[N+](=O)[O-])NNc1cc(OCCOC)cc(C(F)(F)F)c1 measurementtype=pIC50 resultnumber=5.25
molecule=CNC(=C[N+](=O)[O-])NNc1nc(-c2ccccc2)nc2ccccc12 measurementtype=pIC50 resultnumber=4.66
molecule=CNC(=C[N+](=O)[O-])NNc1nc2ccccc2s1 measurementtype=pIC50 resultnumber=5.62
molecule=CNC(=C[N+](=O)[O-])NNc1cc(C(F)(F)F)cc(OCCCc2ccccn2)n1 measurementtype=pIC50 resultnumber=4.45
molecule=COc1ccccc1NC(=C[N+](=O)[O-])NN measurementtype=pIC50 resultnumber=4.45
molecule=NNC(=C[N+](=O)[O-])Nc1ccc(Cl)cc1 measurementtype=pIC50 resultnumber=4.49

P. CNC(=C[N+](=O)[O-])NNc1ccc(OC)cc1
Q. CNC(=C[N+](=O)[O-])NNc1cccc(C)c1
R. CNC(=C[N+](=O)[O-])NNc1cc(C(F)(F)F)cc(C)n1 [compound 131]
S. CNC(=C[N+](=O)[O-])NNc1cc(C(F)(F)F)cc(OCC2CCCCO2)n1 (stereo not shown)
T. CNC(=C[N+](=O)[O-])NNc1ccc(Cl)cn1
Arrange the 5 entries by pIC50 so the values rise. Answer format: list of labels, ordered as asked. Q, P, S, R, T
(Q: 4.28, P: 4.54, S: 4.99, R: 5.52, T: 5.96)

P. CNC(=C[N+](=O)[O-])NNc1ccccc1Cl
Q. CNC(=C[N+](=O)[O-])NNc1cc(C(F)(F)F)cc(OCCc2ccccn2)n1
# argmax over pIC50 for candidates P and Q Please indicate the selected item by its label. Q
(Q: 4.73, P: 4.52)

A. CNC(=C[N+](=O)[O-])NN=Cc1ccc2ccccc2c1
B. CNC(=C[N+](=O)[O-])NNc1ccnc2cc(C(F)(F)F)ccc12
Would you kindly point out which of A and B has the smaller pIC50 figure? Please indicate the selected item by its label. B
(B: 4.40, A: 4.69)

a. CNC(=C[N+](=O)[O-])NN=Cc1ccc(C(=O)O)cc1
b. C=C1C(C)=NN/C(=C\[N+](=O)[O-])N1c1ccccc1
Would you kindly point out which of a and b has the smaller pIC50 figure? Please indicate the selected item by its label. b
(b: 4.36, a: 4.65)
